Parameter: fold change (FC). Scope: all listed entries.
- SYSTEM UNDER TEST: Protein deacetylase HDAC6 (Mus musculus) (UniProt Q9Z2V5)
- Sequence (whole entry): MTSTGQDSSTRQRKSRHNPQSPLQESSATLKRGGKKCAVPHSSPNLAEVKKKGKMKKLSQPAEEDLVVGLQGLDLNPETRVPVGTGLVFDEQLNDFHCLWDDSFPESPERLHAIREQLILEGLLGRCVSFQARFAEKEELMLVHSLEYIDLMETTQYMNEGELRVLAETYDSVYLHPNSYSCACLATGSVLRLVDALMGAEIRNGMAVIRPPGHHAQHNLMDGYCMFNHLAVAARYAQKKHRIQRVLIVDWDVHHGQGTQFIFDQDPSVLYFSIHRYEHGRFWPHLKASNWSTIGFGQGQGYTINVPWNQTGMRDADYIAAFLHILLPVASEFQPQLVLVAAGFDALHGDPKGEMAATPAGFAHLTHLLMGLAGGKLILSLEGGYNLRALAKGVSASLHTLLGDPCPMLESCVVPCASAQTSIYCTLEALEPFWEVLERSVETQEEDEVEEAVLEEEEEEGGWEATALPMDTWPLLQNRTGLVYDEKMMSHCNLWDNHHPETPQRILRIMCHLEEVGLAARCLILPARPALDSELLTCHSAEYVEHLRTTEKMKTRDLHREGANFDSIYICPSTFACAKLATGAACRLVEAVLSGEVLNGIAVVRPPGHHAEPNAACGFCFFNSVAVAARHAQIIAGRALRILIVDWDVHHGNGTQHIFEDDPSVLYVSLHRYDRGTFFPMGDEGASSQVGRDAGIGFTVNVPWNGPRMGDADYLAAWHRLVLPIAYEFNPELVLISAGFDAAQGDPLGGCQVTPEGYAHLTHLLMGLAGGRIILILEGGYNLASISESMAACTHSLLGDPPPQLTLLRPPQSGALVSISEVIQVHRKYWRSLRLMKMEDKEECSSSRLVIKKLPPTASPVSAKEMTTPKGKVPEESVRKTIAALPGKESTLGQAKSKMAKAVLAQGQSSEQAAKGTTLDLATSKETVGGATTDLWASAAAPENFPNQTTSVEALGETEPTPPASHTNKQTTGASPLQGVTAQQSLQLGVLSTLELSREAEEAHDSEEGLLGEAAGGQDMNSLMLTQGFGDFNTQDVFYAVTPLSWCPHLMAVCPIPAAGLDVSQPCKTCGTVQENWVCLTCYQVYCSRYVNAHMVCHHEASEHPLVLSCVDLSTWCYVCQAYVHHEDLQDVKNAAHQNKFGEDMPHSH
- RUN DESCRIPTION: Inhibition of HDAC6 in mouse Neuro2a cells assessed as fold increase in ratio of acetylated alpha-tubulin to alpha tubulin at 0.01 uM incubated for overnight by Western blot analysis
- Assay type: cell-based
- CONDITION DETAILS: time 12.0 hrs
Keep it simple and answer with nothing but the number.

>>> reported_result("NC(=O)c1ccc2c(c1)CCCCN2Cc1ccc(C(=O)NO)cc1")
2.4
>>> reported_result("O=C(NO)c1ccc(CN2C(=O)CCc3cc(Cl)ccc32)cc1")
0.93
>>> reported_result("O=C(NO)c1ccc(CN2CCCc3cc(Cl)ccc32)cc1")
1
>>> reported_result("O=C(NO)c1ccc(CN2CCCCc3ccccc32)cc1")
0.98
>>> reported_result("O=C(NO)c1ccc(CN2CCCc3cc(-c4cc[nH]n4)ccc32)cc1")
2.65
>>> reported_result("CN1CCc2c(c3ccccc3n2Cc2ccc(C(=O)NO)cc2)C1")
0.91

Lab note: need fold change (FC) with Protein deacetylase HDAC6 (Mus musculus) (UniProt Q9Z2V5) for entry `O=C(NO)c1ccc(CN2CCCCc3cc(Cl)ccc32)cc1` , please look it up. 0.89

How about this compound: `O=C(NO)c1ccc(CN2CCCc3cc(Cl)ccc32)c(F)c1` 1.21

How about this compound: `O=C(NO)c1ccc(CN2CCCc3cc(F)c(Cl)cc32)cc1` 1.14

How about this compound: `O=C(NO)c1ccc(CN2CCCc3cc(Cl)c(Cl)cc32)cc1` 1.38

How about this compound: `O=C(NO)c1ccc(CN2CCCCc3cc(-c4cc[nH]n4)ccc32)cc1` 0.95

How about this compound: `O=C(NO)c1ccc(CN2CCCc3cc(Cl)c(F)cc32)cc1` 1.16

How about this compound: `O=C(NO)c1ccc(CN2C(=O)CCCc3cc(Cl)ccc32)cc1` 2.81
